Assay: inhibition of 3D7 malaria parasite growth – strain 3D7 (AID 2306);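 further: 0% = DMSO wells and 100% = chloroquine plus artemisinin control wells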
Settings: P. falciparum 3D7 erythrocytic growth, LDH absorbance, 72 h; at 2 µM; hits give high values
Measured growth inhibition values are reported for all entries that follow.
The answer is to be given in %; state only the numeric part.

Query block: Please give the documented growth inhibition of `NC(=O)c1cc2nc(NC3CCC3)nc(Nc3cccc4[nH]ncc34)c2[nH]1`
Result block: 100

Query block: Please give the documented growth inhibition of `O=C(NCCCCN1CCN(c2cccc3c2CCCC3)CC1)c1ccc(NC(=O)c2ccc(Cl)cc2)cc1`
Result block: 101

Query block: Please give the documented growth inhibition of `COc1ccc2nccc([C@@H](O)CN3CCC(NC(=O)c4ccc(-c5ccc(C#N)cc5)cc4)CC3)c2c1`
Result block: 101

Query block: Please give the documented growth inhibition of `Cc1ccc(-c2[nH]n3c(=O)c4c(nc3c2C)CCCC4)cc1`
Result block: 97

---

Target: Calcium-dependent protein kinase 1 (Plasmodium falciparum (isolate 3D7))
Assay: PfCDPK1 kinase inhibitors, biochemical, TCAMS library (AID 1159585);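 further: inhibitors leave more ATP so luminescence rises with inhibition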
Conditions: recombinant PfCDPK1, Kinase-Glo ATP depletion luminescence
Entries with a potency or affinity are not part of this list. Activity calls are given as the source filed them. The limit is not given here; nearly all actives have IC50 up to about 0.98 µM.
measure.name: outcome

NC(N)=NN=CC(=O)Nc1cccc(C(F)(F)F)c1	inactive
Cc1nc(-c2nc(N3CCC(O)CC3)ncc2-c2ccsc2)sc1C	inactive
Cc1cc(-c2cc3nc4c(c(=O)n3[nH]2)CCCC4)c(C)o1	inactive
Cc1cccc2[nH]c(-c3ccc(-c4ccc(CNCC5CCCO5)cc4)s3)nc12 (stereo unspecified)	inactive
COc1ccc2nccc([C@@H](O)CN3CCC(NC(=O)C(c4cc5ccccc5o4)N4CCC(Cc5ccccc5)CC4)CC3)c2c1 (stereo partly specified)	inactive

Query block: Please give the documented outcome of `FC(F)(F)c1ccc(-c2ccc(CNC3CCN(CCN4CCOCC4)CC3)cc2)cc1`
Result block: inactive

Query block: Please give the documented outcome of `CC(C)c1ccc(C=CC(=O)N2CCC(CCN3CCC(c4c[nH]c5ccccc45)CC3)CC2)cc1`
Result block: inactive

Query block: Please give the documented outcome of `CCCCCCN1CCCN(Cc2cccc(C(=O)Nc3ccc(C(C)(C)C)cc3)c2)CC1`
Result block: inactive

Query block: Please give the documented outcome of O=C(Nc1cccc(C(F)(F)F)c1)c1cccc(S(=O)(=O)NC2CCCN(CC3CCCCC3)C2)c1 (stereo unspecified)
Result block: inactive

Query block: Please give the documented outcome of Cc1ccc2cc(C3NC(=O)c4ccccc4N3)c(Cl)nc2c1 (stereo unspecified)
Result block: inactive

Query block: Please give the documented outcome of `CCCCCN1CCC(NC(=O)c2ccc(C(=O)Nc3ccc(C(C)C)cc3)cc2)CC1`
Result block: inactive

Query block: Please give the documented outcome of `CNc1c2c(nc3ccc(NC(=O)CCCCCCc4ccccc4)cc13)CCCC2`
Result block: inactive

Query block: Please give the documented outcome of `O=C(c1ccc(O)c(-c2cc(Cl)cc(Cl)c2)c1)N(CCO)CCO`
Result block: inactive

Query block: Please give the documented outcome of CCc1cccc(OCC2CCCN(c3ccc(C(=O)NC4CC4)cn3)C2)c1 (stereo unspecified)
Result block: inactive

Query block: Please give the documented outcome of `Cc1[nH]c(C)c(-c2ccc(-c3ccc(OCC(F)(F)F)cc3)nc2)c(=O)c1Cl`
Result block: inactive

Query block: Please give the documented outcome of `Cc1cc(NN=Cc2ccc(Cl)cc2)c2cc(C(F)(F)F)ccc2n1`
Result block: inactive

Query block: Please give the documented outcome of `COCC(=O)N(Cc1ccccc1-c1cccc(CNCc2ccc3c(c2)OCO3)c1)C1CCN(Cc2ccccc2)CC1`
Result block: inactive

Reference source: PubChem BioAssay
